# Target entity: Histamine N-methyl-transferase ( HMT ) (Homo sapiens)
# Sequence (P50135 whole entry, species assumed): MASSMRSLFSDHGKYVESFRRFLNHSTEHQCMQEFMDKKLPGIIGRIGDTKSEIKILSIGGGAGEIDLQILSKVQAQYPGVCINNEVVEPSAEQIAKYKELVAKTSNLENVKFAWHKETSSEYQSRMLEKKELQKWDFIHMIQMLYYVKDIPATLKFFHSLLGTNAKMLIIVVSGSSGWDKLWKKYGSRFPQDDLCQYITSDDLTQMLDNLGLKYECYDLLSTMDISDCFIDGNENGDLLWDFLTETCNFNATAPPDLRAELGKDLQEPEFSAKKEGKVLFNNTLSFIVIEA
# Test description: Inhibition of histamine N-methyltransferase (HMT)
# Format: biochemical
# Assay setup: read-out: % inhibition of HMT at 10^-5M
Measurement name: inhibition at 10 µM (%)

{"Molecule smiles": "CCc1ccc(Cc2cnc3nc(N)nc(N)c3c2C)cc1", "Result value": 55}
{"Molecule smiles": "Cc1c(Cc2ccccc2)cnc2nc(N)nc(N)c12", "Result value": 51}
{"Molecule smiles": "COc1ccc(Cc2cnc3nc(N)nc(N)c3c2C)cc1OC", "Result value": 19}
{"Molecule smiles": "Cc1c(Cc2ccccc2Cl)cnc2nc(N)nc(N)c12", "Result value": 59}
{"Molecule smiles": "COc1ccc(Cc2cnc3nc(N)nc(N)c3c2C)cc1", "Result value": 20}
{"Molecule smiles": "COc1ccc(OC)c(Cc2cnc3nc(N)nc(N)c3c2C)c1", "Result value": 11}

P: COc1ccccc1Cc1cnc2nc(N)nc(N)c2c1C
Q: Nc1nc(N)c2cc(Cc3ccccc3)cnc2n1
Lookup: Given the two records P and Q , choose the one whose inhibition at 10 µM value is lower. State your choice using its label.
Found: P

---

# Test description: Acute toxicity in mice (i.p.)
# Assay setup: mouse, in vivo, ip
Measurement name: LD50

Lookup: What measured LD50 goes with COc1ccc(OC)c(Cc2cnc3nc(N)nc(N)c3c2C)c1 ?
Found: ~500 mg/kg
